molecular target: VEGFR-2 (human, UniProt P35968 20-1356); test: cell-based or functional assay
Sequence (P35968 20-1356): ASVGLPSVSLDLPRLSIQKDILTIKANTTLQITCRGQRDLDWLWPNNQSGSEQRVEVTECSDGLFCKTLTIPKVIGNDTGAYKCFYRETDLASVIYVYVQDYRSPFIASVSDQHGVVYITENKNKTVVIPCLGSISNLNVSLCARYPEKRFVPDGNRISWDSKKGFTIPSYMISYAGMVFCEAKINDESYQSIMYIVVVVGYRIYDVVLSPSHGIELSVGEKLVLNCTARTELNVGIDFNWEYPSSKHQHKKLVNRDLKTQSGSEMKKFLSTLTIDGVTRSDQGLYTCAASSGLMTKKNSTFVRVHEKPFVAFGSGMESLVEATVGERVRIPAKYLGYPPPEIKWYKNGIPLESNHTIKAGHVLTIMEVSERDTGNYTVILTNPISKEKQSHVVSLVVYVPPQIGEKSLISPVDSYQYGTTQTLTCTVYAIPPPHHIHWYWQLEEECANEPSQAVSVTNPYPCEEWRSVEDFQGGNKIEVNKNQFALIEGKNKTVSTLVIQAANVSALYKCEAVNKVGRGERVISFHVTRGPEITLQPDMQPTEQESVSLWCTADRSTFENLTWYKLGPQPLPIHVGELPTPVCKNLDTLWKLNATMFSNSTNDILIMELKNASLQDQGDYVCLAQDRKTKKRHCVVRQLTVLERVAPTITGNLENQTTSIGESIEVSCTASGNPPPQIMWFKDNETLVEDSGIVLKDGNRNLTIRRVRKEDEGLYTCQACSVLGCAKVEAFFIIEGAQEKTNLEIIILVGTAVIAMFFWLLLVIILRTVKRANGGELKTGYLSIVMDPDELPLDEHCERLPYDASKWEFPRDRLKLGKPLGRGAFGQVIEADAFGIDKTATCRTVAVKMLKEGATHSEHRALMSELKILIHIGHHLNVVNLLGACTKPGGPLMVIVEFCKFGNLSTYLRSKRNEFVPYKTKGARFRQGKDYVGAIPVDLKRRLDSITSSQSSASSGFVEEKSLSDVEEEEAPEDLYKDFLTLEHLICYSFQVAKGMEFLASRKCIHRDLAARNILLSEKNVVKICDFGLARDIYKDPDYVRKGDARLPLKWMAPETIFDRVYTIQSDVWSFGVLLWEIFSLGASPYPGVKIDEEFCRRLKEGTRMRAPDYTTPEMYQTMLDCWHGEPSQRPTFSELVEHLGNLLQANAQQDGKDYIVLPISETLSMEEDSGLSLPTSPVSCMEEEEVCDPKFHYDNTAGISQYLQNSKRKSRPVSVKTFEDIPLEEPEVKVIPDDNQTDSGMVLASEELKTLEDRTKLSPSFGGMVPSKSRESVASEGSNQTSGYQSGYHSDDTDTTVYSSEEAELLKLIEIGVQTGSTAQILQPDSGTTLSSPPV
Bridges are numbered along the chain shown (N, C = ends). Where no end group is shown, it is not given here. [ ]: non-standard residue; d: D form. hTyr = N[C@@H](CCc1ccc(O)cc1)C(=O)O; hPhe = N[C@@H](CCc1ccccc1)C(=O)O; Chg = N[C@H](C(=O)O)C1CCCCC1; Tle = CC(C)(C)[C@H](N)C(=O)O; F4aao = not defined here; Yph = not defined here
Listed here: items and their measured pERK Assay Results (AlphaLISA p-Erk1/2, HUVEC).
reported-endpoint: pERK Assay Results (AlphaLISA p-Erk1/2, HUVEC)

binder | result
{CH2CO}-WWVDV[hPhe]DDLYFVDCG (thioether N-14; also: dimer: C-terminus joined to second copy by PEG12c-K-PEG12c) [Peptide complex Dimer Structure No. 4] | ≥ 50 % activity at 10 nM
{CH2CO}-WWVDVQDDLYFVDCG (thioether N-14; also: dimer: Gly15 C-terminus joined to second copy by K-cPEG17c-K) [Peptide complex Dimer Structure No. 12] | < 50 % activity at 100 nM
{CH2CO}-WWVDVKDDLYFVDCG-NH2 (thioether N-14; not fully specified (residue 6); also: homodimer: Lys6 joined to Lys6 of second copy by cPEG13c (Linker Structure No. 3)) [Peptide complex Dimer Structure No. 14] | ≥ 50 % activity at 10 nM
{CH2CO}-WW[Chg]DVKDDLYF[hTyr]DCG-NH2 (thioether N-14; not fully specified (residue 6); also: homodimer: Lys6 joined to Lys6 of second copy by cPEG17c (Linker Structure No. 4)) [Peptide complex Dimer Structure No. 25] | ≥ 50 % activity at 10 nM
{CH2CO}-[F4aao]W[Tle]DVKDDLYF[hTyr]DCG-NH2 (thioether N-14; not fully specified (residue 6); reading uncertain; also: homodimer: Lys6 joined to Lys6 of second copy by cPEG17c (Linker Structure No. 4)) [Peptide complex Dimer Structure No. 24] | ≥ 50 % activity at 10 nM
{CH2CO}-WW[Tle]DVKDDLY[Yph][hTyr]DCG-NH2 (thioether N-14; not fully specified (residue 6); reading uncertain; also: homodimer: Lys6 joined to Lys6 of second copy by cPEG17c (Linker Structure No. 4)) [Peptide complex Dimer Structure No. 20] | ≥ 50 % activity at 10 nM
{CH2CO}-WWVD[Tle]KDDLYFVDCG-NH2 (thioether N-14; not fully specified (residue 6); also: homodimer: Lys6 joined to Lys6 of second copy by cPEG17c (Linker Structure No. 4)) [Peptide complex Dimer Structure No. 15] | ≥ 50 % activity at 100 nM
